Cited source for all entries: PubChem BioAssay

Molecular target: Torsin-1A-interacting protein 2 (Homo sapiens)
Assay: LULL1 binders on small-molecule microarray, primary screen, cell lysate, human LULL1 lysate, 635/667 nm fluorescence (AID 1092);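 note: probe is lysate of COS7 cells overexpressing human LULL1; score merges per-feature 667 nm fluorescence with signal-to-noise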
Conditions: hLULL1 lysate binding, 635 nm fluorescence, higher = more signal
Lab note: compare composite z-score against 3. Equal or greater, write Satisfied. Smaller, write Not satisfied.

Could you verify whether the entry `COc1ccc(CCNC(=O)[C@@H]2c3ccccc3C(=O)N(Cc3ccc(OC(F)(F)F)cc3)[C@H]2c2ccc(CO)cc2)cc1` shows composite z-score of no less than 3? Not satisfied

Could you verify whether the entry `O=C1c2ccccc2[C@@]2(Cc3ccccc3N(Cc3ccccc3)C2=O)[C@H](c2ccc(CO)cc2)N1C1CCCCC1` shows composite z-score of no less than 3? Not satisfied

Could you verify whether the entry `C[C@]1(C(=O)NCc2ccccc2)c2ccccc2C(=O)N(Cc2ccc(OC(F)(F)F)cc2)[C@H]1c1ccc(CO)cc1` shows composite z-score of no less than 3? Not satisfied

Could you verify whether the entry `C=C(COC)/C(=C/C[C@H](OC(=O)c1ccncc1)c1cccc(OCCO)c1)c1cc(C(=O)OC)ccc1OC` shows composite z-score of no less than 3? Not satisfied

Could you verify whether the entry `C=CCN1C(=O)[C@]2(O[C@H](CCO)[C@@H]([Si](C)(C)c3ccc(OC)cc3)[C@@H]2C)c2cc(NC(=O)[C@H](C)O)ccc21` shows composite z-score of no less than 3? Not satisfied

Could you verify whether the entry N#Cc1ccc(NN2C(C(O)C3CCCCC3)C=CC3C(=O)N(c4ccccc4)C(=O)C32)cc1 (centres undefined) shows composite z-score of no less than 3? Satisfied
